# Test system: CCRIS mutagenicity, Ames/micronucleus/aberration tests
# measurement description: CCRIS mutagenicity studies
# protocol conditions: Test System: AMES SALMONELLA TYPHIMURIUM; Strain/Indicator: TA98; Metabolic Activation: NONE; Method: PREINCUBATION
The source made the active and inactive calls. The rule behind the calls is not given here.
Classes to choose from: True (active), False (inactive)

Illustrative cases are given below, each with its answer.
compound	label
O=S(=O)(O)c1cc(S(=O)(=O)O)c2c(N=Nc3ccc(S(=O)(=O)O)c4ccccc34)c(O)ccc2c1	False
Cc1oc(=O)oc1CN1CCN(c2cc3c(cc2F)c(=O)c(C(=O)O)c2n3C(C)S2)CC1 (stereo not drawn)	False
O=[N+]([O-])c1ccc2nc3c([N+](=O)[O-])cccc3nc2c1	True

Data request: # lookup: test call for `Cc1c2c(c(C)c3ccccc13)[C@H]1O[C@H]1c1ccccc1-2`
Data returned: True

Data request: And for `Nc1ccc(Br)cc1` ?
Data returned: False

Data request: And for `CCN(CC)CCO` ?
Data returned: False

Data request: And for `Cn1c([N+](=O)[O-])nc2c3cccnc3ccc21` ?
Data returned: True

###

# System: CCRIS mutagenicity, Ames/micronucleus/aberration tests
# measurement description: CCRIS mutagenicity studies
# protocol conditions: Test System: AMES SALMONELLA TYPHIMURIUM; Strain/Indicator: TA100; Metabolic Activation: RAT, LIVER, S-9, PHENOBARBITAL AND BETA-NAPHTHOFLAVONE; Method: PREINCUBATION
Activity calls are given as the source filed them. How the calls were made is not given here.
Classes to choose from: True for active, False for inactive

Illustrative cases are given below, each with its answer.
> print(dat)
                      smiles.representation  label
1                                    CC(C)O  False
2                                 CCOC(C)=O  False
3                               C=CC(=O)NCO  False
4  CN1CCc2cc3c(c4c2[C@H]1[C@H](O)c1ccccc1-4)OCO3   True
5  COc1cc2c3c(c1OC)-c1cc4c(cc1C[C@@H]3N(C)CC2)OCO4   True
6                   Nc1nc(N)nc(-c2ccccc2)n1  False

Data request: # lookup: test call for `Nc1ccc([N+](=O)[O-])cc1N`
Data returned: True

Data request: And for `O=[N+]([O-])O` ?
Data returned: False

Data request: And for `ClCCOCCCl` ?
Data returned: False

Data request: And for `Nc1c(Cl)cc([N+](=O)[O-])cc1[N+](=O)[O-]` ?
Data returned: True

###

# Tested on: CCRIS mutagenicity, Ames/micronucleus/aberration tests
# measurement description: CCRIS mutagenicity studies
# protocol conditions: Test System: AMES SALMONELLA TYPHIMURIUM; Strain/Indicator: TA98; Metabolic Activation: NONE; Method: STANDARD PLATE
Calls of active or inactive are those of the source. No rule for the calls is given here.
Classes to choose from: Y (active), N (inactive)

Illustrative cases are given below, each with its answer.
> print(dat)
                                   compound  label
1              C=C(C)c1ccc(C)c2ccc(CO)c-2c1      N
2  CC(N)c1ccccc1.CC(N)c1ccccc1.[Cl][Pt][Cl] (stereo unspecified)      Y
3  CCN(CC)c1ccc(N=Nc2c(Cl)cc([N+](=O)[O-])cc2[N+](=O)[O-])cc1      N

Data request: # lookup: test call for `CC(C)c1cc(-c2ccccc2)ccc1N`
Data returned: N

Data request: And for `[Cl][Pd-2]([Cl])([Cl])([Cl])([Cl])[Cl]` ?
Data returned: N

Values were extracted from PubChem BioAssay AID1259407.
